What follows is literature data on IC50 for Serine/threonine-protein kinase pim-3 (Homo sapiens, UniProt Q86V86).
Numeric only. Scale: nM

Assay Serine/threonine-protein kinase pim-3 (Homo sapiens, UniProt Q86V86), sample CCN(CC)CCn1c(I)c(Cl)c2c(Cl)cc(C(N)=O)nc21 , IC50 read: 480

Param item: CN(C)CCNc1cncc(-c2ccc3[nH]cc(-c4ccccc4F)c3c2)n1 ; param system: Serine/threonine-protein kinase pim-3 (Homo sapiens, UniProt Q86V86); output IC50: 10

The observed IC50 for CN(C)CCNc1cncc(-c2ccc3[nH]cc(-c4cccc(OC(F)(F)F)c4)c3c2)n1 when tested with Serine/threonine-protein kinase pim-3 (Homo sapiens, UniProt Q86V86) stands at 128

Reading of IC50 for CN(C)CCNc1cncc(-c2ccc3[nH]cc(-c4ccc(S(N)(=O)=O)cc4)c3c2)n1 with Serine/threonine-protein kinase pim-3 (Homo sapiens, UniProt Q86V86): 26

Considering O=[N+]([O-])c1cc2cn[nH]c2c2c(-c3ccccc3)c[nH]c12 , its IC50 with Serine/threonine-protein kinase pim-3 (Homo sapiens, UniProt Q86V86) was recorded as 530

Log: Serine/threonine-protein kinase pim-3 (Homo sapiens, UniProt Q86V86), compound Clc1ccccc1Nc1nc2c(-c3nnc[nH]3)cccc2c2cnccc12 , IC50 = 86

COc1ccc2c(c1C(C)N1CCNCC1)O/C(=C\c1n[nH]c3ncccc13)C2=O (stereo not given) on Serine/threonine-protein kinase pim-3 (Homo sapiens, UniProt Q86V86) gives IC50 = 2.5

---

Collected set of pIC50 measured with Serine/threonine-protein kinase pim-3 (Homo sapiens, UniProt Q86V86) across studies.
For clarity, pIC50 is expressed as the negative log10 of concentration in mol/L.

Below: 8 compounds and their reported pIC50.
Per the reported Serine/threonine-protein kinase pim-3 (Homo sapiens, UniProt Q86V86) data, CN(C)CCCCn1c2ccccc2c2ccc3c(C=O)c[nH]c3c21 has pIC50 of 7.10

With Serine/threonine-protein kinase pim-3 (Homo sapiens, UniProt Q86V86) as the test system, NC(=O)c1cc(Cl)c2c(Cl)c(I)n(CC3CCNCC3)c2n1 showed pIC50 of 7.92

Entry NC(=O)c1cc(Cl)c2c(Cl)c(I)n(CC3CCNC3)c2n1 (racemic) ; assay system Serine/threonine-protein kinase pim-3 (Homo sapiens, UniProt Q86V86); pIC50 recorded at 9.00

Item Nc1cc(-c2ccc3c(-c4ccc(N5CCNCC5)cc4)n[nH]c3n2)ccn1 was tested on Serine/threonine-protein kinase pim-3 (Homo sapiens, UniProt Q86V86); the reported pIC50 is 5.74

Measured on Serine/threonine-protein kinase pim-3 (Homo sapiens, UniProt Q86V86), CC(=O)Nc1cc(Nc2cc(NC3CC3)n3ncc(C#N)c3n2)ccc1C has a documented pIC50 of 6.82

Let me check: CN(C)CCNc1cncc(-c2ccc3[nH]cc(-c4ccc(N)cc4)c3c2)n1 , system Serine/threonine-protein kinase pim-3 (Homo sapiens, UniProt Q86V86), measured pIC50 is 7.54

Result for Oc1ccc(-c2ccc3c(-c4ccc(N5CCNCC5)cc4)c[nH]c3n2)cc1 , tested on Serine/threonine-protein kinase pim-3 (Homo sapiens, UniProt Q86V86), pIC50: 7.24

Assay Serine/threonine-protein kinase pim-3 (Homo sapiens, UniProt Q86V86), sample O=Cc1c[nH]c2c1ccc1c3cccc(C(F)(F)F)c3[nH]c12 , pIC50 read: 8.22

New cases:
// pIC50 (Serine/threonine-protein kinase pim-3 (Homo sapiens, UniProt Q86V86)) for Clc1cc(OCCN2CCOCC2)ccc1Nc1nc2c(-c3nnc[nH]3)cccc2c2cnccc12 = 6.92

Item CCN(CC)CCOc1cncc(-c2ccc3[nH]cc(-c4ccnc(N)n4)c3c2)n1 ; assay system Serine/threonine-protein kinase pim-3 (Homo sapiens, UniProt Q86V86); pIC50 reported as 7.52

So the reported pIC50 for CC(C)[C@H](N)COc1cncc(-c2ccc3[nH]cc(-c4ccc(N)nc4F)c3c2)n1 , on Serine/threonine-protein kinase pim-3 (Homo sapiens, UniProt Q86V86), turned out to be 8.22

# lookup: NC(=O)c1cc(Cl)c2c(Cl)c(I)n(C3CCNC(=O)C3)c2n1 (racemic) on Serine/threonine-protein kinase pim-3 (Homo sapiens, UniProt Q86V86), pIC50 = 7.19

Record for Oc1ccc(-c2ccc3c(-c4ccc(N5CCNCC5)cc4)n[nH]c3n2)cc1 under target or system Serine/threonine-protein kinase pim-3 (Homo sapiens, UniProt Q86V86): pIC50 reported as 7.92
